assay.method.text: Phase I single dose oral AMX0035 fasted/fed plasma pharmacokinetics and food effect (Protocol A35-002)
Assay type: in vivo, human
condition.description: both sexes, human, in vivo, single dose AMX0035 fasted; Median; read-out: T1/2 (converted)
parameter.measured: half-life (min)

compound	unit.tag	quantitative.result
O=C(O)Cc1ccccc1 [PAA, phenylacetate]	min	50

----------
assay.method.text: Phase I single dose oral AMX0035 fasted/fed plasma pharmacokinetics and food effect (Protocol A35-002)
Type: in vivo, human
condition.description: both sexes, human, in vivo, single dose AMX0035 fed; Geometric Mean; read-out: T1/2 (converted)
Experimental: • Protocol AMX3500: sparse sampling in 87 subjects with ALS. Approximately 2 samples are collected for each subject, 1 or 4 hours post dose following 12 and 24 weeks of treatment. • Protocol A35-002: rich sampling in 14 healthy adults. Approximately 21 samples are collected over 24 hours for each subject on two occasions, once following a high fat meal and the other under fasting conditions. […] Any departures from the intended regimen were recorded in the eCRFs. […]
parameter.measured: half-life (min)

compound	quantitative.result
O=C(O)Cc1ccccc1 [PAA, phenylacetate]	46.8

----------
assay.method.text: clinical
Assay type: in vivo, human
condition.description: human, in vivo
Protocol: • 1. […] Treatment is administered as one sachet daily for the initial 3 weeks and then increased if tolerated to one sachet twice daily. […] Twenty-four distinct medication descriptions were identified as containing antibiotics. […] Some subjects are therefore in both categories of antibiotic use and nonuse, though no individual visits for a subject are counted in both categories at the same time. […]
parameter.measured: accumulation in plasma after once- or twice-daily dosing

compound	result
C[C@H](CCC(=O)NCC(=O)O)[C@H]1CC[C@H]2[C@@H]3[C@@H](O)C[C@@H]4C[C@H](O)CC[C@]4(C)[C@H]3CC[C@]12C [GUDCA, glycoursodeoxycholic acid]	substantial accumulation
C[C@H](CCC(=O)O)[C@H]1CC[C@H]2[C@@H]3[C@@H](O)C[C@@H]4C[C@H](O)CC[C@]4(C)[C@H]3CC[C@]12C [UDCA, ursodeoxycholic acid]	substantial accumulation

----------
assay.method.text: Phase I single dose oral AMX0035 fasted/fed plasma pharmacokinetics and food effect (Protocol A35-002)
Assay type: in vivo, human
condition.description: both sexes, human, in vivo, single dose AMX0035 fed; Geometric Mean; read-out: Cmax

molecule	Cmax (ng/mL)
O=C(O)Cc1ccccc1 [PAA, phenylacetate]	15900

----------
assay.method.text: Phase I single dose oral AMX0035 fasted/fed plasma pharmacokinetics and food effect (Protocol A35-002)
Assay type: in vivo, human
condition.description: both sexes, human, in vivo, po, single oral AMX0035, Fasted (N = 13), healthy subjects, PK analysis subset; read-out: Cmax, Adj Geo Mean

compound	Cmax, ng/mL
O=C(O)Cc1ccccc1 [PAA, phenylacetate]	26600

----------
assay.method.text: Phase I single dose oral AMX0035 fasted/fed plasma pharmacokinetics and food effect (Protocol A35-002)
Format: in vivo, human
condition.description: both sexes, human, in vivo, single dose AMX0035 fasted; Geometric Mean; read-out: AUC(0-last)

compound	AUC(0-t) / ng·h/mL
O=C(O)Cc1ccccc1 [PAA, phenylacetate]	81800

----------
assay.method.text: Phase I single dose oral AMX0035 fasted/fed plasma pharmacokinetics and food effect (Protocol A35-002)
Assay type: in vivo, human
condition.description: both sexes, human, in vivo, po, single oral AMX0035, Fed (N = 13), healthy subjects, PK analysis subset; read-out: AUC(0-inf), Adj Geo Mean
parameter.measured: AUC(0-inf) (ng·h/mL)

compound	parameter.measured	unit.tag	quantitative.result
O=C(O)Cc1ccccc1 [PAA, phenylacetate]	AUC(0-inf)	ng·h/mL	59800

----------
assay.method.text: Phase I single dose oral AMX0035 fasted/fed plasma pharmacokinetics and food effect (Protocol A35-002)
Type: in vivo, human
condition.description: both sexes, human, in vivo, single dose AMX0035 fasted; Median; read-out: AUC(0-inf)

molecule	AUC(0-inf) / ng·h/mL
O=C(O)Cc1ccccc1 [PAA, phenylacetate]	80700

----------
assay.method.text: Phase I single dose oral AMX0035 fasted/fed plasma pharmacokinetics and food effect (Protocol A35-002)
Type: in vivo, human
condition.description: both sexes, human, in vivo, Table 1: fasted; geometric mean (CV%); read-out: AUC(0-inf)

molecule	unit.tag	AUC(0-inf)
O=C(O)Cc1ccccc1 [PAA, phenylacetate]	ng·h/mL	83400

----------
assay.method.text: Phase I single dose oral AMX0035 fasted/fed plasma pharmacokinetics and food effect (Protocol A35-002)
Type: in vivo, human
condition.description: both sexes, human, in vivo, fasted; read-out: elimination half-lives (range)
parameter.measured: half-life

molecule	result
O=C(O)Cc1ccccc1 [PAA, phenylacetate]	41.4 to 57 min

----------
assay.method.text: Phase I single dose oral AMX0035 fasted/fed plasma pharmacokinetics and food effect (Protocol A35-002)
Assay type: in vivo, human
condition.description: both sexes, human, in vivo, single dose AMX0035 fed; Median; read-out: AUC(0-inf)
parameter.measured: AUC(0-inf) (ng·h/mL)

molecule	parameter.measured	quantitative.result
O=C(O)Cc1ccccc1 [PAA, phenylacetate]	AUC(0-inf)	54500

----------
assay.method.text: Phase I single dose oral AMX0035 fasted/fed plasma pharmacokinetics and food effect (Protocol A35-002)
Assay type: in vivo, human
condition.description: both sexes, human, in vivo, single dose AMX0035 fasted; Geometric Mean; read-out: T1/2 (converted)
parameter.measured: half-life

compound	result
O=C(O)Cc1ccccc1 [PAA, phenylacetate]	48.8 min

----------
assay.method.text: Phase I single dose oral AMX0035 fasted/fed plasma pharmacokinetics and food effect (Protocol A35-002)
Format: in vivo, human
condition.description: both sexes, human, in vivo, single dose AMX0035 fasted; Median; read-out: Cmax

compound	unit.tag	Cmax
O=C(O)Cc1ccccc1 [PAA, phenylacetate]	ng/mL	27700
